SYSTEM UNDER TEST: V1aR (Homo sapiens, UniProt P37288)
Sequence (P37288 whole entry, species assumed): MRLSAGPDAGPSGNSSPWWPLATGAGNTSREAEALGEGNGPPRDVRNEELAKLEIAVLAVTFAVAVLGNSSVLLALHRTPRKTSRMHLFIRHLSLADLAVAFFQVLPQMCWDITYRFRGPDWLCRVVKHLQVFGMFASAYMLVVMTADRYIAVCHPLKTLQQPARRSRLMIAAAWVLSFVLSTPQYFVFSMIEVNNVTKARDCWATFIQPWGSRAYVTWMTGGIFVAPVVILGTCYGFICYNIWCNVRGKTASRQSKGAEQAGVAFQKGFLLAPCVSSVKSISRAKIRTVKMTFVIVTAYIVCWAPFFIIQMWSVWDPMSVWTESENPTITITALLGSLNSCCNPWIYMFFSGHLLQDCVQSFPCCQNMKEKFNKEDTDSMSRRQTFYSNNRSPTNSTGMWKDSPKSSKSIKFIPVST
RUN DESCRIPTION: Ca2+ mobilization in cells stably expressing V1aR (FLIPR, antagonist mode)
EXPERIMENTAL PARAMETERS: V1a-CHO stably transfected cell line
pIC50: −log10 of the molar value.
Label condition met when pIC50 >= 6; otherwise condition not met.

{"COMPOUND SMILES": "CO/N=C1/C[C@@H](CO)N(C(=O)c2cnc(-c3cccc(C)c3C)cn2)C1", "CLASSIFICATION": "condition not met"}
{"COMPOUND SMILES": "CO/N=C1/C[C@@H](CO)N(C(=O)c2ccc(-c3cccc(C#N)c3C)c(F)c2)C1", "CLASSIFICATION": "condition met"}
{"COMPOUND SMILES": "CO/N=C1/C[C@@H](CO)N(C(=O)c2ccc(-c3cccc(C)c3C)c(C(=O)NC3COC3)c2)C1", "CLASSIFICATION": "condition not met"}
{"COMPOUND SMILES": "CO/N=C1/C[C@@H](CO)N(C(=O)c2ccc(-c3cccc(C#N)c3C)cc2OC)C1", "CLASSIFICATION": "condition not met"}
{"COMPOUND SMILES": "CO/N=C1/C[C@@H](CO)N(C(=O)c2ccc(-c3cccc(C)c3C)c(OC)c2)C1", "CLASSIFICATION": "condition met"}
{"COMPOUND SMILES": "CO/N=C1/C[C@@H](CO)N(C(=O)c2ccc(-c3cccc(C)c3C)c3c2CCC3)C1", "CLASSIFICATION": "condition not met"}
{"COMPOUND SMILES": "CO/N=C1/C[C@@H](CO)N(C(=O)c2ccc(-c3ccccc3C)c(C)c2)C1", "CLASSIFICATION": "condition not met"}

###

SYSTEM UNDER TEST: V1aR (Homo sapiens)
RUN DESCRIPTION: Ca2+ mobilization in cells stably expressing V1aR (FLIPR, antagonist mode)
EXPERIMENTAL PARAMETERS: V1a-CHO stably transfected cell line
pIC50: −log10 of the molar value.
Reported pIC50 by item:
MEASURED QUANTITY: pIC50

{"MOLECULE": "CO/N=C1\\C[C@@H]([C@@H](C)O)N(C(=O)c2ccc(-c3cccc(C#N)c3C)cc2)C1 (single isomer, unassigned) [Example C0113]", "SYSTEM UNDER TEST": "V1aR (Homo sapiens)", "MEASURED": 5.81}
{"MOLECULE": "CO/N=C1\\C[C@@H](CO)N(C(=O)c2ccc(-c3cccc(C)c3C)cc2)C1 [Example C0035]", "SYSTEM UNDER TEST": "V1aR (Homo sapiens)", "MEASURED": 6.18}
{"MOLECULE": "CO/N=C1/C[C@@H](CO)N(C(=O)c2ccc(-c3cccc(C)c3C)c(OCCO)c2)C1 [Example A0148]", "SYSTEM UNDER TEST": "V1aR (Homo sapiens)", "MEASURED": 6.14}
{"MOLECULE": "CO/N=C1/C[C@@H](CO)N(C(=O)c2ccc(-c3cccc(C#N)c3C)cc2)C1 [Example C0058]", "SYSTEM UNDER TEST": "V1aR (Homo sapiens)", "MEASURED": 5.65}
{"MOLECULE": "CO/N=C1/C[C@@H](C(C)O)N(C(=O)c2ccc(-c3ccccc3C)cc2)C1 (mixture of isomers) [Example C0067]", "SYSTEM UNDER TEST": "V1aR (Homo sapiens)", "MEASURED": 6.65}
{"MOLECULE": "CO/N=C1\\CN(C(=O)c2ccc(-c3ccccc3C)cc2)[C@](C)(CO)C1 [Example C0021]", "SYSTEM UNDER TEST": "V1aR (Homo sapiens)", "MEASURED": 6.06}
{"MOLECULE": "CO/N=C1/C[C@@H](CO)N(C(=O)c2ccc(-c3cccc(C(F)F)c3C)cc2)C1 [Example C0079]", "SYSTEM UNDER TEST": "V1aR (Homo sapiens)", "MEASURED": 6.03}
